Sourced from the supplement of paper PMC8671470

For each entry below, report its cell viability value.
# Tested on: myeloid leukemia patient primary cells Pat.2
# ASSAY: cell viability (% survival relative to DMSO control); higher = less cytotoxic
# CONDITION_DETAILS: 10000 nM; 72 h
Where a name gives a salt, the structure may show the parent alone.
Answers are plain numbers, in %.

Worked examples follow.
compound=Cc1nnc(-c2ccc(N3CCC(Oc4ccccc4C(F)(F)F)CC3)nn2)s1 tested_system="myeloid leukemia patient primary cells Pat.2" endpoint_unit=% numeric_value=89.7
compound="CC(C)(Cc1ccccc1)NCC(O)c1ccc(O)c(NS(C)(=O)=O)c1 (stereo not given) [Zinterol hydrochloride]" tested_system="myeloid leukemia patient primary cells Pat.2" endpoint_unit=% numeric_value=93
compound=Fc1ccc(CNc2ncnc3ccc(F)cc23)cc1 tested_system="myeloid leukemia patient primary cells Pat.2" endpoint_unit=% numeric_value=77.2

Pending compound:
Challenge: Recall and state the measured cell viability for CCCCCCCCCCCCC/C=C/[C@@H](O)[C@H](CO)N(C)C .
Response given: 3.22

---

For each entry below, report its cell viability value.
# Test system: MOLM-13
# ASSAY: cell viability (% survival relative to DMSO control, bortezomib = 0%); higher = less cytotoxic
# CONDITION_DETAILS: 100 nM; 72 h
Numbers only, in %.

Worked examples follow.
molecule=c1ccc2nc(-c3nnc4sc(-c5cnccn5)nn34)ccc2c1 numeric_value=95.3
molecule="Cn1c2cc(S(C)=O)sc2c2cnn(Cc3cccc(N)c3)c(=O)c21 (stereo not given) [TEPP-46]" numeric_value=91.9
molecule="CN(C)C(=N)NC(=N)N [Metformin]" numeric_value=117
molecule=CC(C)(CS(=O)(=O)[O-])NC(=O)CC[N+](C)(C)CCO numeric_value=97.2

Pending molecule:
Challenge: Recall and state the measured cell viability for CC(C)(F)C[C@H](N[C@@H](c1ccc(-c2ccc(S(C)(=O)=O)cc2)cc1)C(F)(F)F)C(=O)NC1(C#N)CC1 [Odanacatib] .
Response given: 108

---

# Test system: BV-173
# CONDITION_DETAILS: 72 h
ASSAY_READOUT: IC50 (cell viability) (µM)
One number for each entry, in µM.

compound="O=[As]O[As]=O (stereo not given) [Arsenic trioxide]" tested_system=BV-173 numeric_value=4.7

Pending compound:
Challenge: Recall and state the measured IC50 (cell viability) for Fc1ccc(CNc2ncnc3ccc(F)cc23)cc1 .
Response given: 2.75

---

# Test system: ML-2
# ASSAY: cell viability (% survival relative to DMSO control, bortezomib = 0%); higher = less cytotoxic
# CONDITION_DETAILS: 10 nM; 72 h
Structures can show the parent of a compound that is named as a salt.
ASSAY_READOUT: cell viability (%)
Numbers only, in %.

Worked examples follow.
compound="O[C@H]1[C@H](O)[C@@H](O)CN2CC[C@H](O)[C@H]12 [Castanospermine]" numeric_value=107
compound="NS(=O)(=O)c1ccc(S(=O)(=O)Nc2cccc3c(Cl)c[nH]c23)cc1 [Indisulam]" numeric_value=104
compound="COc1cc(C2Oc3cc(C4Oc5cc(O)cc(O)c5C(=O)C4O)ccc3OC2CO)ccc1O (configuration not stated) [Silibinin]" numeric_value=99.2
compound="CCCCCCCCCCCCC/C=C/[C@@H](O)[C@H](CO)N(C)C [N,N-Dimethylsphingosine]" numeric_value=96.8

Dear colleague, could you send me cell viability for each of the items below? Thanks.
1. Cc1[nH]n(-c2ccccc2)c(=O)c1C1(C(F)(F)F)C(=O)N(c2ccccc2)C2=C1C(=O)CC(C)(C)C2 (configuration not stated)
2. COc1cc(/C=C/c2ccc(OC)cc2OC)cc(OC)c1 [2,3',4,5'-Tetramethoxystilbene]
3. CC(C)(Cc1ccccc1)NCC(O)c1ccc(O)c(NS(C)(=O)=O)c1 (configuration not stated) [Zinterol hydrochloride]

Response given:
87.9
102
93.3
